# TGI per record follows
Test system: SK-MEL-5 melanoma
assay: NCI tumour cell line growth inhibition, 48 h

| molecule | TGI |
| --- | --- |
| CC(C)C(Sc1nc(-c2ccccc2)c(-c2ccccc2)[nH]1)C(=O)N/N=C/c1ccc(Cl)cc1 (stereo unspecified) | 30.5 µM |
| O=C(CSc1nc2ccccc2c(=O)n1-c1ccccc1)N=Nc1c(O)[nH]c2ccc(Br)cc12 | > 20.6 µM |
| Cc1ccc(S(=O)(=O)N(CC(O)COc2ccccc2)c2c(F)c(F)c(F)c(F)c2F)cc1 (stereo unspecified) | 25.5 µM |
| CC(C)(C)CNCCO | > 100 µM |
| Cc1cc2c3c(c1)S(=O)(=O)c1cc(Cl)ccc1N3CCC2 | > 100 µM |
| CN1CCN(c2ccc3nc(-c4[nH]ncc4Nc4ncnc5[nH]ccc45)[nH]c3c2)CC1 | 2.15 µM |
| CC(NC(=O)c1ccc(Cl)c(Cl)c1)c1ccc(-c2ccccc2)cc1 (stereo unspecified) | > 100 µM |
| COc1cc(O)c2c(=O)c3cccc(C)c3[nH]c2c1 | > 10 µM |
| CCOc1cc2c(cc1OC)c[n+](C)c1c3cc(OC)c(OC)cc3ccc21 | > 100 µM |
| COc1ccc(-c2cc(=O)c3c(C)ccnc3[nH]2)cc1 | 14.7 µM |
| CCOP(=O)(OCC)/C(C#N)=C/c1nc[nH]c1C | > 100 µM |
